Assay info: Storage Capacity Loss Test
Assay type: physicochemical
Applied conditions: 72-24 Hrs storage at room temperature
The label depends only on FD Capacity Loss: true if it is at least 50%, false if it is smaller.

Molecule | Label value
CCNC(O)C(O)NCC (centres unmarked) [Et] | true
CC(O)CNC(O)C(O)NCC(C)O (centres unmarked) | true
CC(C)NC(O)C(O)NC(C)C (centres unmarked) [GIDA] | false
CCCNC(O)C(O)NCCC (centres unmarked) [n-Pr] | true
CNC(O)C(O)NC (centres unmarked) [Me] | false

* * *

Assay info: Spent Solids Fouling Test
Type: physicochemical
Applied conditions: Table 5; glyoxy alkyl diaminol in water and MeOH only
Source text: In every application, the active component of the scavenger system reacts with H2S to from a reaction product. Once all the active scavenger has been so reacted, it is spent. […] Thioethers are much less water soluble than amines, so the reaction products are often insoluble. Thioether bridges also connect spent scavenger molecules to each other, thereby forming insoluble polymeric solids. […] A homogeneous, single-phase solution or thin layer of readily flowable non-sticking liquid constitutes a pass.

Molecule | Spent Solids Fouling
CCCNC(O)C(O)NCCC (stereo not shown) | Fail
CC(O)CNC(O)C(O)NCC(C)O (stereo not shown) | Pass
CCNC(O)C(O)NCC (stereo not shown) | Fail
CNC(O)C(O)NC (stereo not shown) | Fail
